# reported pIC50; entries follow
biological target: Prostaglandin G/H synthase 2 (Homo sapiens, UniProt P35354); assay: Inhibition of COX-2 (unknown origin) at 0.1 uM
Sequence (P35354 whole entry): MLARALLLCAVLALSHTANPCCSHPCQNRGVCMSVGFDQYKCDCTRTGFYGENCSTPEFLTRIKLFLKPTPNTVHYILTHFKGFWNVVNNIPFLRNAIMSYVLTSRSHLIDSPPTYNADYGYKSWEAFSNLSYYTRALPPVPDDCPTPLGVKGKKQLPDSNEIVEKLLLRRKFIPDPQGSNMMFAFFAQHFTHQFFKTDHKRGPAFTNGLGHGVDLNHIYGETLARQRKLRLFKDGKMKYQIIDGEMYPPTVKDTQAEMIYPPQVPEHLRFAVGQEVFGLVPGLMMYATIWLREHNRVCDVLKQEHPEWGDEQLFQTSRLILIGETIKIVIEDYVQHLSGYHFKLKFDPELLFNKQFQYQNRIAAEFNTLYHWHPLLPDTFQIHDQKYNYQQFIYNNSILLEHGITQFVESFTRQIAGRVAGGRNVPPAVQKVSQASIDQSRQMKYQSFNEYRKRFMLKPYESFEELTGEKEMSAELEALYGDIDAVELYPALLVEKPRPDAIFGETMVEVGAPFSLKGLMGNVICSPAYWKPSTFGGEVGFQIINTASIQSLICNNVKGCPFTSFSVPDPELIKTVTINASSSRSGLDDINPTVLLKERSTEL
# pIC50: negative log10 of molar concentration; output just the value

Fill in: Prostaglandin G/H synthase 2 (Homo sapiens, UniProt P35354) pIC50 for COc1ccc(C2=NNC(S)C2N(CN2C(=O)/C(=C\c3nnc(-c4ccc(-c5ccc(OC)cc5)cc4)s3)c3ccccc32)C(=O)c2ccccc2)cc1 (configuration not stated) = 4.27

Okay, next one:
Fill in: Prostaglandin G/H synthase 2 (Homo sapiens, UniProt P35354) pIC50 for CC(=O)N(CN1C(=O)/C(=C\c2nnc(-c3ccc(-c4ccncc4)cc3)s2)c2ccccc21)C1C(c2ccc(O)cc2)=NNC1S (configuration not stated) = 4.15
